Below, each entry is listed alongside its reported inhibition of growth at 500 ppm.
system: Alternaria solani; experiment: Spore germination test, Alternaria solani; type: cell-based; conditions: 500 ppm active substance, 48 hours at 20° C., vs untreated control, read-out: Fungitoxicity against fungi spore, Alternaria solani (effectiveness)

| molecule | inhibition of growth at 500 ppm |
| --- | --- |
| CCOC1CC(=O)N(c2cc(Cl)cc(Cl)c2)C1=O (stereo not drawn) | 70% |
| CC(=O)OC1CC(=O)N(c2cc(Cl)cc(Cl)c2)C1=O (stereo not drawn) | 100% |
| COCC1CC(=O)N(c2cc(Cl)cc(Cl)c2)C1=O (stereo not drawn) | 100% |
| C=CCOC1CC(=O)N(c2cc(Cl)cc(Cl)c2)C1=O (stereo not drawn) | 80% |
| O=C1CC(C2C=CCCC2)C(=O)N1c1cc(Cl)cc(Cl)c1 (stereo not drawn) [reference compound] | 30% |
| CC(C)NC(=O)N1CC(=O)N(c2cc(Cl)cc(Cl)c2)C1=O [Rovral, reference compound] | 0% |
| CC(C)OC1CC(=O)N(c2cc(Cl)cc(Cl)c2)C1=O (stereo not drawn) | 70% |
| COC1CC(=O)N(c2cc(Cl)cc(Cl)c2)C1=O (stereo not drawn) | 90% |
| CCC=CCSC1CC(=O)N(c2cc(Cl)cc(Cl)c2)C1=O (stereo not drawn) [reference compound] | 20% |

====

test system: Fusarium nivale; assay: Spore germination test, Fusarium nivale; format: cell-based; conditions: Microdochium nivale; 500 ppm active substance; 48 hours at 20° C.; vs untreated control; read-out: Fungitoxicity against fungi spore, Fusarium nivale (effectiveness)

| molecule | inhibition of growth at 500 ppm (%) |
| --- | --- |
| C=CCOC1CC(=O)N(c2cc(Cl)cc(Cl)c2)C1=O (stereo not shown) | 70 |
| CC(=O)OC1CC(=O)N(c2cc(Cl)cc(Cl)c2)C1=O (stereo not shown) | 100 |
| CC(C)OC1CC(=O)N(c2cc(Cl)cc(Cl)c2)C1=O (stereo not shown) | 50 |
| CCC=CCSC1CC(=O)N(c2cc(Cl)cc(Cl)c2)C1=O (stereo not shown) [reference compound] | 20 |
